- targetOfAssay: human PPARα (Homo sapiens)
- Construct: borders undisclosed
- experimentalProtocol: Cell-based Luciferase Assay, human PPARα agonist activity (Indigo Biosciences hPPARα IB00111)
- conditionSummary: read-out: % PPAR-alpha AGONISM, % at 0.5 μm
Exercise: for every item that follows, state its recorded activation at 0.5 µM.
Respond numerically; units are % and should not be typed.

Lookup: Suppose we examine the compound O=C(O)c1cccc(NCc2ccc(-c3ccc(C(F)(F)F)cc3)cc2)c1 ; what activation at 0.5 µM value has been reported?
Found: 74.7

Lookup: Suppose we examine the compound O=C(O)c1cc(F)cc(NCc2ccc(-c3ccc(Cl)cc3)cc2)c1 ; what activation at 0.5 µM value has been reported?
Found: 38.6

Lookup: Suppose we examine the compound O=C(O)c1cc(F)cc(NCc2cn(-c3ccc(C(F)(F)F)cc3)nn2)c1 ; what activation at 0.5 µM value has been reported?
Found: 27

Lookup: Suppose we examine the compound COc1ccc(-c2ccc(CNc3cccc(C(=O)O)c3)cc2)cc1 ; what activation at 0.5 µM value has been reported?
Found: 32.9

Lookup: Suppose we examine the compound O=C(O)c1cc(F)cc(NCc2cc(Cl)c(-c3ccc(C(F)(F)F)cc3)c(Cl)c2)c1 ; what activation at 0.5 µM value has been reported?
Found: 0

Lookup: Suppose we examine the compound O=C(O)c1cc(F)cc(NCc2ccc(-c3ccc(C(F)(F)F)cc3)cn2)c1 ; what activation at 0.5 µM value has been reported?
Found: 22.1

Lookup: Suppose we examine the compound Cc1cc(CNc2cc(F)cc(C(=O)O)c2)ccc1-c1ccc(C(F)(F)F)cc1C ; what activation at 0.5 µM value has been reported?
Found: 14.1

Lookup: Suppose we examine the compound COc1ccc(-c2ccc(CNc3cc(F)cc(C(=O)O)c3)cc2)cc1 ; what activation at 0.5 µM value has been reported?
Found: 38.2

Lookup: Suppose we examine the compound O=C(O)c1cccc(NCc2ccc(-c3ccc(C(F)(F)F)cc3)cc2)c1F ; what activation at 0.5 µM value has been reported?
Found: 73.7

Lookup: Suppose we examine the compound Cc1cc(C(F)(F)F)ccc1-c1ccc(CNc2cc(F)cc(C(=O)O)c2)cc1 ; what activation at 0.5 µM value has been reported?
Found: 38.3

Lookup: Suppose we examine the compound O=C(O)c1cccc(NCc2ccc(-c3ccc(F)cc3)cc2)c1 ; what activation at 0.5 µM value has been reported?
Found: 35.6

Lookup: Suppose we examine the compound Cc1ccc(-c2ccc(CNc3cc(F)cc(C(=O)O)c3)cc2)cc1 ; what activation at 0.5 µM value has been reported?
Found: 40.6

Lookup: Suppose we examine the compound N#Cc1ccc(-c2ccc(CNc3cc(F)cc(C(=O)O)c3)cc2)cc1 ; what activation at 0.5 µM value has been reported?
Found: 7

Lookup: Suppose we examine the compound O=C(O)c1cc(F)cc(NCc2ccc(-c3ccc(C(F)(F)F)cc3)cc2O)c1 ; what activation at 0.5 µM value has been reported?
Found: 8

Lookup: Suppose we examine the compound O=C(O)c1cc(F)cc(NCc2cn(-c3ccc(F)cc3)nn2)c1 ; what activation at 0.5 µM value has been reported?
Found: 9.6

Lookup: Suppose we examine the compound O=C(O)c1cc(NCc2ccc(-c3ccc(C(F)(F)F)cc3)cc2)ccc1F ; what activation at 0.5 µM value has been reported?
Found: 67.4

Lookup: Suppose we examine the compound O=C(O)c1cc(F)cc(NCc2ccc(-c3ccccc3)cc2)c1 ; what activation at 0.5 µM value has been reported?
Found: 17.6

Lookup: Suppose we examine the compound O=C(O)c1cc(F)cc(NCc2cnc(-c3ccc(C(F)(F)F)cc3)s2)c1 ; what activation at 0.5 µM value has been reported?
Found: 15.7

----------
Exercise: for every item that follows, state its recorded activation at 5 µM.
- targetOfAssay: human PPARα (Homo sapiens)
- Construct: borders undisclosed
- Sequence (Q07869 1-468): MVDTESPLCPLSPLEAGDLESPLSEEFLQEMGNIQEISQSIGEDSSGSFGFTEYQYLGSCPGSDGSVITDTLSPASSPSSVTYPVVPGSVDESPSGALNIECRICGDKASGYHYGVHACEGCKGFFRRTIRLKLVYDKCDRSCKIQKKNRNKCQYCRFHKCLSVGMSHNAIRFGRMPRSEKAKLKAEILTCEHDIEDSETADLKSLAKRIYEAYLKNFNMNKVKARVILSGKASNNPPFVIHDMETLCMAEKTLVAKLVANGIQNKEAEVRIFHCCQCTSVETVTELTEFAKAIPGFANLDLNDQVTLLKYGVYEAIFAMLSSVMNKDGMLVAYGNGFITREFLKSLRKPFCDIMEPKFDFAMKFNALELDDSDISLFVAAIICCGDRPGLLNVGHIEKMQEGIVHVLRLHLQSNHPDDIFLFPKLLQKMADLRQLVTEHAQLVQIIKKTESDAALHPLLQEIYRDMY
- experimentalProtocol: Cell-based Luciferase Assay, human PPARα agonist activity (Indigo Biosciences hPPARα IB00111)
- conditionSummary: read-out: % PPAR-alpha AGONISM, % at 5 μm
Respond numerically; units are % and should not be typed.

Lookup: Suppose we examine the compound O=C(O)c1cccc(NCc2ccc(-c3ccc(C(F)(F)F)cc3)cc2)c1F ; what activation at 5 µM value has been reported?
Found: 120

Lookup: Suppose we examine the compound O=C(O)c1cc(F)cc(NCc2csc(-c3ccc(C(F)(F)F)cc3)n2)c1 ; what activation at 5 µM value has been reported?
Found: 88.7

Lookup: Suppose we examine the compound Cc1cc(C(F)(F)F)ccc1-c1ccc(CNc2cc(F)cc(C(=O)O)c2)cc1 ; what activation at 5 µM value has been reported?
Found: 47.4

Lookup: Suppose we examine the compound Cc1ccc(-c2ccc(CNc3cc(F)cc(C(=O)O)c3)cc2)cc1 ; what activation at 5 µM value has been reported?
Found: 101

Lookup: Suppose we examine the compound O=C(O)c1cc(F)cc(NCc2cn(-c3ccc(C(F)(F)F)cc3)nn2)c1 ; what activation at 5 µM value has been reported?
Found: 139

Lookup: Suppose we examine the compound COc1ccc(-c2ccc(CNc3cc(F)cc(C(=O)O)c3)cc2)cc1 ; what activation at 5 µM value has been reported?
Found: 106

----------
- targetOfAssay: human PPARα (Homo sapiens, UniProt Q07869)
- Construct: borders undisclosed
- Sequence (Q07869 1-468): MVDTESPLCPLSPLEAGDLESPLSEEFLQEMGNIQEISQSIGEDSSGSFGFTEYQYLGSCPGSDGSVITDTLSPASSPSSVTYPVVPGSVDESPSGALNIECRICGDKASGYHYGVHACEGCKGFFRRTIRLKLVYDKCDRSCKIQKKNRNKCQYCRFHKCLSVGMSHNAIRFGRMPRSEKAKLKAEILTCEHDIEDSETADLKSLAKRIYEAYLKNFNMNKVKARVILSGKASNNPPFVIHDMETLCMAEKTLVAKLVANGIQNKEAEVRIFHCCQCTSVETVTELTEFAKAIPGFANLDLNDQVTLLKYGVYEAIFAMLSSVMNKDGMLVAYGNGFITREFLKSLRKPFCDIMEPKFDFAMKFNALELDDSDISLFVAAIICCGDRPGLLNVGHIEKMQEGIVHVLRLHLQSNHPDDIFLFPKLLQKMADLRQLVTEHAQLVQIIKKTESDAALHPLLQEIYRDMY
- experimentalProtocol: Cell-based Luciferase Assay, human PPARα agonist activity (Indigo Biosciences hPPARα IB00111)
- conditionSummary: read-out: % PPAR-alpha AGONISM, % at 0.5 μm
measurementName: activation at 0.5 µM (%)
Respond numerically; units are % and should not be typed.

Lookup: Suppose we examine the molecule O=C(O)c1cccc(NCc2cn(-c3ccc(C(F)(F)F)cc3)nn2)c1 ; what activation at 0.5 µM value has been reported?
Found: 51.1

Lookup: Suppose we examine the molecule O=C(O)c1cc(F)cc(NCc2ccc(-c3ccc(C4CCCC4)cc3)cc2)c1 ; what activation at 0.5 µM value has been reported?
Found: 38.2

Lookup: Suppose we examine the molecule O=C(O)c1cc(F)cc(NCc2csc(-c3ccc(C(F)(F)F)cc3)n2)c1 ; what activation at 0.5 µM value has been reported?
Found: 21.7

Lookup: Suppose we examine the molecule O=C(O)c1ccc(F)c(NCc2ccc(-c3ccc(C(F)(F)F)cc3)cc2)c1 ; what activation at 0.5 µM value has been reported?
Found: 6.6

Lookup: Suppose we examine the molecule O=C(O)c1cccc(NCc2cn(-c3ccc(F)cc3)nn2)c1 ; what activation at 0.5 µM value has been reported?
Found: 13.1

Lookup: Suppose we examine the molecule O=C(O)c1cc(F)cc(NCc2csc(-c3ccc(F)cc3)n2)c1 ; what activation at 0.5 µM value has been reported?
Found: 10.6

----------
Exercise: for every item that follows, state its recorded activation at 50 µM.
- targetOfAssay: human PPARα (Homo sapiens, UniProt Q07869)
- Construct: borders undisclosed
- experimentalProtocol: Cell-based Luciferase Assay, human PPARα agonist activity (Indigo Biosciences hPPARα IB00111)
- conditionSummary: read-out: % PPAR-alpha AGONISM, % at 50 μm
Respond numerically; units are % and should not be typed.

Lookup: Suppose we examine the molecule O=C(O)c1cccc(NCc2ccc(-c3ccc(C(F)(F)F)cc3)cc2)c1F ; what activation at 50 µM value has been reported?
Found: 20.9

Lookup: Suppose we examine the molecule O=C(O)c1ccc(F)c(NCc2ccc(-c3ccc(C(F)(F)F)cc3)cc2)c1 ; what activation at 50 µM value has been reported?
Found: 68.1

Lookup: Suppose we examine the molecule Cc1cc(C(F)(F)F)ccc1-c1ccc(CNc2cc(F)cc(C(=O)O)c2)cc1 ; what activation at 50 µM value has been reported?
Found: 27.5

Lookup: Suppose we examine the molecule O=C(O)c1cc(F)cc(NCc2ccc(-c3ccc(Cl)cc3)cc2)c1 ; what activation at 50 µM value has been reported?
Found: 87.8

Lookup: Suppose we examine the molecule O=C(O)c1cccc(NCc2ccc(-c3ccc(C(F)(F)F)cc3)cc2)c1 ; what activation at 50 µM value has been reported?
Found: 27.4

Lookup: Suppose we examine the molecule Cc1cc(CNc2cc(F)cc(C(=O)O)c2)ccc1-c1ccc(C(F)(F)F)cc1C ; what activation at 50 µM value has been reported?
Found: 26.5

The measurements presented in this section are drawn from patent US20260297016A1.
